From: patent US9708308B2

molecular target: Factor IXa (Homo sapiens)
Sequence (P00740 227-461 limits assumed): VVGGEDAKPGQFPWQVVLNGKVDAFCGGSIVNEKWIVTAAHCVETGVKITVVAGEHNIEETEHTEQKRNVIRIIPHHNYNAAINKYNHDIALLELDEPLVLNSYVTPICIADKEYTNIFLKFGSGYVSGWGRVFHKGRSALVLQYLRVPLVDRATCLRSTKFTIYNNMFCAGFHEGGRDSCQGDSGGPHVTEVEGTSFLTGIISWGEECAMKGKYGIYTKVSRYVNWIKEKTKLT
Sequence (P00740 47-191 partner limits assumed): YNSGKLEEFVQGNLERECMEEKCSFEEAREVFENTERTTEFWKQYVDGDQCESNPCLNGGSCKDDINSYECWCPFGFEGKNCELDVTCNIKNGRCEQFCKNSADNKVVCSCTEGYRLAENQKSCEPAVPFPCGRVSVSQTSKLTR
pIC50: −log10 of the molar value.
Recorded endpoint: pIC50

Structure smiles string | pIC50
C[C@](O)(C(=O)Nc1ccc2c(N)noc2c1)[C@H]1OCCN(c2ccn(-c3ccnnc3)n2)C1=O | 8.36

P. Cc1cc(N2CCO[C@](C)([C@@H](O)C(=O)Nc3ccc4c(N)noc4c3)C2=O)nn1C1CC1
Q. COc1cc(-n2cc(C)c(N3CCO[C@H]([C@@](C)(O)C(=O)Nc4ccc5c(N)noc5c4)C3=O)n2)ccn1
R. COc1cc(-n2ccc(N3CCO[C@](C)([C@@H](O)C(=O)Nc4ccc5c(N)noc5c4)C3=O)n2)ccn1
Endpoint returns the given molecules ordered by ascending pIC50. Please respond with the labels ordered as the question requires.
Q, P, R
(Q: 6.16, P: 6.40, R: 6.98)
